# System: M. smegmatis mc2 155
# procedure.summary: MIC and MBC against M. smegmatis
# Format: cell-based
# condition.details: Mycolicibacterium smegmatis, MC2155
measured.endpoint: MIC (µg/mL)
Dear colleague, please return just the value in µg/mL, with no unit written.

Req: Report MIC, nothing else, for this molecule: CCCCCCCCCCNC(=O)c1cc([N+](=O)[O-])cc([N+](=O)[O-])c1 [Compound 7d, N-decyl-3.5-dinitrobenzamide]
Resp: 1

Req: Name the recorded MIC of the molecule listed here: CCCCCCCCCCCCCCNC(=O)c1cc([N+](=O)[O-])cc([N+](=O)[O-])c1 [Compound 7f, N-tetradecyl-3.5-dinitrobenzamide]
Resp: 1

Req: Retrieve MIC measured for CCCCCCCCCCCCCCCCNC(=O)c1cc([N+](=O)[O-])cc([N+](=O)[O-])c1 [Compound 7g, N-hexadecyl-3.5-dinitrobenzamide] and print it.
Resp: 32

Req: Report MIC for CCCCCCCCNC(=O)c1cc([N+](=O)[O-])cc([N+](=O)[O-])c1 [Compound 7c, N-octyl-3.5-dinitrobenzamide]
Resp: 0.25

Req: Report measured MIC; entry is CCCCCCNC(=O)c1cc([N+](=O)[O-])cc([N+](=O)[O-])c1 [Compound 7b, N-hexyl-3.5-dinitrobenzamide]
Resp: 1

Req: Check the records and state MIC for CCCCCCCCCCCCNC(=O)c1cc([N+](=O)[O-])cc([N+](=O)[O-])c1 [Compound 7e, N-dodecyl-3.5-dinitrobenzamide]
Resp: 0.66

###

Task for the reader: assign each of the following compounds its reported Degradation (%) 48h.
# procedure.summary: Stability in human plasma (enzymatic hydrolysis)
# condition.details: 48h
Numeric answer only, unit % assumed.

Req: Find the measured Degradation (%) 48h of "CCCCCCCCCCCCCCOC(=O)c1cc([N+](=O)[O-])cc([N+](=O)[O-])c1" and report it.
Resp: 51

Req: Recall and state the measured Degradation (%) 48h for CCCCCCOC(=O)c1ccccc1 [Compound 1b, Hexyl benzoate] .
Resp: 100

Req: Assign Degradation (%) 48h to the following record: CCCCCCCCOC(=O)c1ccc([N+](=O)[O-])cc1 [Compound 2c, Octyl 4-nitrobenzoate]
Resp: 100

Req: Query Degradation (%) 48h for CCCCCCCCNC(=O)c1ccc([N+](=O)[O-])cc1 [Compound 6c, N-octyl-4-nitrobenzamide]
Resp: 0

Req: Using known records, supply Degradation (%) 48h for CCCCCCCCCCCCNC(=O)c1ccc([N+](=O)[O-])cc1 [Compound 6e, N-dodecyl-4-nitrobenzamide]
Resp: 0

Req: Identify Degradation (%) 48h associated with the compound "CCCCCCOC(=O)c1cc([N+](=O)[O-])cc(C(F)(F)F)c1"
Resp: 94

Req: Given the compound CCCCCCCCCCCCNC(=O)c1ccccc1 [Compound 5e, N-dodecyl-benzamide] , write its reported Degradation (%) 48h.
Resp: 0

Req: Report Degradation (%) 48h, nothing else, for this compound: "CCCCOC(=O)c1cc([N+](=O)[O-])cc([N+](=O)[O-])c1"
Resp: 98

###

# Test system: Mycobacterium smegmatis homogenate
# procedure.summary: Stability in Mycobacterium smegmatis homogenate (enzymatic hydrolysis)
# condition.details: Mycobacterium smegmatis homogenate, 37°C; 48h
measured.endpoint: Degradation (%) 48h
Answer with a number only, understood to be in %.

Req: Name the recorded Degradation (%) 48h of the compound listed here: "CCCCCCCCCCCCOC(=O)c1ccc([N+](=O)[O-])cc1"
Resp: 34

Req: Recall and state the measured Degradation (%) 48h for "CCCCOC(=O)c1cc([N+](=O)[O-])cc(C(F)(F)F)c1" .
Resp: 100

Req: Provide measured Degradation (%) 48h value, entry: CCCCOC(=O)c1ccccc1 [Compound 1a, Butyl benzoate]
Resp: 100

Req: Supply measured Degradation (%) 48h of CCCCCCCCNC(=O)c1ccccc1 [Compound 5c, N-octyl-benzamide] in your reply.
Resp: 2
